experiment: yeast display, Sf9 membrane polyspecificity reagent, FACS + sequencing; frameworks hold sequencing errors

RESIDUE_CODES	polyreactivity (PSR sort gate)
QVQLVESAGGLVQAGGSLRLSFAASGSIFYSYAMGSYRKAAGKDRELVADITSSGGSTYYADSVKGRFTISRDNAKNTDYLQMNSLKREDTAVYYCAASSPAFYGLRYNYWGQGTQVTVSS	low polyreactivity
QVQLVESGGGLVQAGGSLRLSCAASGRIFWGYSMGWYRQAPGKERELVAAITSGGRTYYADSVKGRFTISRDNAKNTVYLQMNSLKPEDTAVYYCAAVYVPYYWLGRSRGLDYWGQGTQVTVSS	high polyreactivity
QVQLVESGGGLVQAGGSLRLSCAASGSTFWWNTMGWYRQAPWKERELVADIRTSGGGTYYADSVKGRFTISRDNAKNTVYLQMNSLKPEDTAVYYCNADPKWEMGSWGQGTQVTVSS	low polyreactivity
QVQLVESGGGLFQAGGSLRISCAASGRTFWYYAMGWYRPAPGKERELVAAITRGTSTYADSVKGRYTISRDNAKNTVYLQMNSLKPEDTAVYYCATYFRVWYRSYDYWGQGTQVTVSS	high polyreactivity
QVQLVESGGGLVQAGGSLRLSCAASGSILRSYAMGWYRQAPGKERELVAAISSSGGSTYYADSVKGRFTISRDNAKNTVYLQMNSLKPEDTAVYYCAAATSRRFDYWGQGTQVTVSS	high polyreactivity
QVQLVESGGGLVQAGGSLRLSCAASGSIFDHNAMGWYRQAPGKEREFVARITSSGGGTYYADSVKGRFTISRDNAKNTVYLQMNSLKPEDTAVYYCAKTYYRQGARYPTLFYYWGQGTQVTVSS	low polyreactivity
QVQLVESGGGLVQAGGSLRLSCAASGSTLGQYAMGWYRQAPGKERELVAASRRGVRTYYADSVKGRFTISRDNAKNTVYFQMNSLKPEDTAVFYCAARRDVSRPVVGTMGYWGQGSQVTVSS	high polyreactivity
QVQLVESGGGLVQAGGSLRLICAASGSIYYSYGMGWYRQAPGKERELVAAITSSGGGTYYADSVKGRFTISRDNAKNTFYLQMNSLKPEDTAVYYCAADDRNYNYYPTFYYWGQGTQVTVSS	low polyreactivity
QVQLVESGGGLVQAGGSLRLSCAASGSIFPPYAMGWYRQAPGKERELVATITIRGGSTYYADSVKGRFTISRDNAKNTVYLEMNSLKPDDTAVYYCAADYTKYYRSYYYWGQGTQVTVSS	high polyreactivity
QVQLVESGGGLVQAGGSLRLSCAASGGIFRYYAMGWYRQAPGKERELVAAISKSGGRTYYADSVKGRFTISRDNAKNTVYLQMNSLKPEDTAVYYCAADLYPFSRNTRYQFLYNYWGQGTQVTVSS	low polyreactivity
QVQLVESGGGLVQAGGSLRLSCAASGSTFYGYVMGWYRQAPGKERDFVAGITRGGSTNYADSVKGRFTISRDNAKNTVYLQMNSLKPEDTAVYYCATRYFSRYYYWGQGTQVTVSS	high polyreactivity
QVQLVESGGGLVQAGGSLRLSCAASGFTFSKYAMGWYRQAPGKERELVAAISRSAGSTYYADSVKGRFTISRDNAKNTVYLQMNSLKPEDNAVYYCARDNPRSPSGYNYWGQGSQVTVSS	high polyreactivity
QVQLVESGGGLVQAGGSLRLRCAASGSIFTWYAMGWYRQAPAKERELVAAITRGGSTSADSVKGRFTISRDNAKNTVYLQMNSLKPEYTAVYYCNAVYGVYDFNYWGQGTQVTVSS	low polyreactivity
QVQLVESGGGLVQAGGSLRLSCSASGRFYVINYMGRYRQAPGKERELVAANTWGSSTYADSEKGRFTISRDNAKITVYFQMNSLKQEDTAVYYCSRDVYPSTWEYDYWGQGTQVTVSS	low polyreactivity
QVQLVESGGGLVQAGGSLRLSCAASGFTFDIYAMGWYRQAPGKERELVADITSGGSTDYADSVKGRFTISRDNAKNTVYLQMNSLKPEDTAVFYCNAAVFYEPEWQYDYWGQGTQVTVSS	low polyreactivity
QVQLVESGGGLVQAGGSLRLSCAASGRIFNYYAMGWYRQAPGTERELVAAISTDGGSTYYADSVKGRFTISRDNAKNSVYLQMNSLKPEDTAVYYCAAYQYYDFSYSYDYWGQGTQVTVSS	low polyreactivity
QVQLVDTGGGLVQAGGSLRLSCSASGSNFEYNDMVWYRHAHGKERELVAAISSGGDTNYADSVKGRFTISRDNAKNTVYLQKNSLKAEDTAVYYCNAEGLILYDYWGQGTQVTVSS	low polyreactivity
QVQLEESGGGLVQAGGSLRLSCAASGSIFSYNAMGWYRQAPGKERELVAAISRGSGSTYYADSVKGRFTISRDNAKNTVYLQMNSLKPEDTAVYYCATRSIRVLPDVYRKADDYWGQGTQVTVSS	low polyreactivity
QVQLVESGGGLVQAGGSLRLSCAASVSTFSGYAMGWYRQAPGKERELVAAISSSGGGTYYADSVKGRFTISRDNAKNTVYLQMNSLKPEDTAVFYCAAYKYFLGFVWYDYWGQGTQVTVSS	high polyreactivity
QVQLVESGGGLVQAGGSLRLSCAASGSTFWSYAMGWYRQAPGKERELVADIRWSGDGTYYADSVKGRFTISRDNAKITVYLQMNSLKPEDTAVYYCAADYFPVNSYGYWGQGTQVTVSS	low polyreactivity
QVQLVESGGGLVQAGGSLRLSSAASGSTFLYYVMGWYRQARGKERELVAGITSRGASTYYADSVKGRFTFSRDNAKNTVYLQMNSLKPEDTAVYDCAKPGFTYPGRYNYWGQGTQVTVSS	high polyreactivity
